Assay: Displacement of [3H]DTG from sigma 2 receptor in rat brain homogenates without cerebellum
Format: tissue-based
pKi: −log10 of the molar value.

{"Smiles": "Fc1ccc(-n2cc(CCCCN3CCC4(CC3)OCc3ccccc34)c3ccccc32)cc1", "pKi": 9.92}

###

Experiment: Displacement of [3H]-DTG from sigma 2 receptor in Sprague-Dawley rat liver membranes after 120 mins by scintillation counting analysis
Format: cell membranes, Membrane

{"Smiles": "C[C@@H]1CN(CCCn2c3ccccc3c3ccccc32)C[C@H](C)N1", "Ki / nM": 302}
